# pIC50 annotations
# test-target: PI3Kα (wild-type), P110/P85α (Homo sapiens)
# protocol-summary: PI3 Kinase TR-FRET assay, PI3Kα (wild-type)
pIC50: −log10 of the molar value.
assay-metric: pIC50

In [3]: df
Out[3]:
                                   compound                               test_target  recorded_measurement
0  CC1CN(c2nc(-c3ccc(NC(=O)Nc4ccc(C(=O)N(C)C)cc4)c(F)c3)nc3cc(-c4cncnc4)ccc23)CCO1 (stereo not shown)  PI3Kα (wild-type), P110/P85α (Homo sapiens)          6.70 to 7.30
1  CN(C)C(=O)c1ccc(NC(=O)Nc2ccc(-c3nc(N4CCOCC4)c4ncc(-c5cnn(C)c5)cc4n3)cc2)cc1  PI3Kα (wild-type), P110/P85α (Homo sapiens)                > 7.30
2  CC(O)c1ccc(-c2ccc3c(N4CCOCC4)nc(-c4ccc(NC(=O)Nc5ccc(C(=O)N(C)C)cc5)cc4)nc3c2)o1 (stereo not shown)  PI3Kα (wild-type), P110/P85α (Homo sapiens)                > 7.30
3  CC(O)c1ccc(-c2cnc3c(N4CCOCC4)nc(-c4ccc(NC(=O)Nc5ccc(C(=O)N(C)C)cc5)c(F)c4)nc3c2)o1 (stereo not shown)  PI3Kα (wild-type), P110/P85α (Homo sapiens)                > 7.30
4  CN(C)C(=O)c1ccc(NC(=O)Nc2ccc(-c3nc(N4CCOCC4)c4ccc(-c5cccc(S(C)(=O)=O)c5)cc4n3)c(F)c2)cc1  PI3Kα (wild-type), P110/P85α (Homo sapiens)                > 7.30
5  CN(C)C(=O)c1ccc(NC(=O)Nc2ccc(-c3nc(N4CCOCC4)c4cccc(-c5cccnc5F)c4n3)cc2)cc1  PI3Kα (wild-type), P110/P85α (Homo sapiens)          6.70 to 7.30
6  CN(C)C1CCN(C(=O)c2ccc(NC(=O)Nc3ccc(-c4nc(N5CCOCC5)c5ccc(C(C)(C)O)cc5n4)cc3)cc2)CC1  PI3Kα (wild-type), P110/P85α (Homo sapiens)                > 7.30
7  CN1CCN(C(=O)c2ccc(NC(=O)Nc3ccc(-c4nc(N5CCOCC5)c5ccc(-c6cnn(C)c6)cc5n4)cc3)cc2)CC1  PI3Kα (wild-type), P110/P85α (Homo sapiens)          6.70 to 7.30
8  CN(C)C(=O)c1ccc(NC(=O)Nc2ccc(-c3nc(N4CCOCC4)c4ncc(-c5cnn(C)c5)cc4n3)cn2)cc1  PI3Kα (wild-type), P110/P85α (Homo sapiens)                > 7.30
9  CN(C)C(=O)c1ccc(NC(=O)Nc2ccc(-c3nc(N4CCOCC4)c4ccc(-c5cccnc5)cc4n3)cc2F)cc1  PI3Kα (wild-type), P110/P85α (Homo sapiens)                > 7.30

###

# test-target: PI3Kα (wild-type), P110/P85α (Homo sapiens, UniProt P42336)
# Sequence (P42336 whole entry): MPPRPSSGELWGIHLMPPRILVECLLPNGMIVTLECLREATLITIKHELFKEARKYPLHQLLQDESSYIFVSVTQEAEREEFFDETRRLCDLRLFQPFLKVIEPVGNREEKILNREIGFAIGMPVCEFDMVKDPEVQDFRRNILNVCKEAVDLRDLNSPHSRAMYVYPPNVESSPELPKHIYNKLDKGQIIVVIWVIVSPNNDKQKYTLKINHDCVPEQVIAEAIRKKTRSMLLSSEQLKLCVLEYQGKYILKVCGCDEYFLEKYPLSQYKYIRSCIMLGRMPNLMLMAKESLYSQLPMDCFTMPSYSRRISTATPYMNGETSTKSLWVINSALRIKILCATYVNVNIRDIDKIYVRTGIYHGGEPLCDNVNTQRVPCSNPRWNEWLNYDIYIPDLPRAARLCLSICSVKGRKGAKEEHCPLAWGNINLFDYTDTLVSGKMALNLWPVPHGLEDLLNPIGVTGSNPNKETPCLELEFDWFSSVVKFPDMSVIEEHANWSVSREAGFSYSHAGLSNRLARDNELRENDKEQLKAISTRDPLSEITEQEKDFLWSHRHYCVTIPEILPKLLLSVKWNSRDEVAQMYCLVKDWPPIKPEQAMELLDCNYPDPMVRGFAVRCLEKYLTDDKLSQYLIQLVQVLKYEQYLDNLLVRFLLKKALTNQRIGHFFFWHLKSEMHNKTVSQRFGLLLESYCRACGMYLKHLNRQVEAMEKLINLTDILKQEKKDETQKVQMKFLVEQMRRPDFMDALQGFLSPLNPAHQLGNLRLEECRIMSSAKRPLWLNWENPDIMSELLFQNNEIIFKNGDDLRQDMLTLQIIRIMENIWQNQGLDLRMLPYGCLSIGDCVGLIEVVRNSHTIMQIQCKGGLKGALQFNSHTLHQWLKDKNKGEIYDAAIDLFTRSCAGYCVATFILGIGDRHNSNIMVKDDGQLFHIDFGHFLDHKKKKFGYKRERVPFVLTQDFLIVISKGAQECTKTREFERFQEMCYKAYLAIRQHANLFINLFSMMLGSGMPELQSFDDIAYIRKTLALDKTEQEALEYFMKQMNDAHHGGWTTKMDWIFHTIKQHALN
# Sequence (P27986 whole entry partner): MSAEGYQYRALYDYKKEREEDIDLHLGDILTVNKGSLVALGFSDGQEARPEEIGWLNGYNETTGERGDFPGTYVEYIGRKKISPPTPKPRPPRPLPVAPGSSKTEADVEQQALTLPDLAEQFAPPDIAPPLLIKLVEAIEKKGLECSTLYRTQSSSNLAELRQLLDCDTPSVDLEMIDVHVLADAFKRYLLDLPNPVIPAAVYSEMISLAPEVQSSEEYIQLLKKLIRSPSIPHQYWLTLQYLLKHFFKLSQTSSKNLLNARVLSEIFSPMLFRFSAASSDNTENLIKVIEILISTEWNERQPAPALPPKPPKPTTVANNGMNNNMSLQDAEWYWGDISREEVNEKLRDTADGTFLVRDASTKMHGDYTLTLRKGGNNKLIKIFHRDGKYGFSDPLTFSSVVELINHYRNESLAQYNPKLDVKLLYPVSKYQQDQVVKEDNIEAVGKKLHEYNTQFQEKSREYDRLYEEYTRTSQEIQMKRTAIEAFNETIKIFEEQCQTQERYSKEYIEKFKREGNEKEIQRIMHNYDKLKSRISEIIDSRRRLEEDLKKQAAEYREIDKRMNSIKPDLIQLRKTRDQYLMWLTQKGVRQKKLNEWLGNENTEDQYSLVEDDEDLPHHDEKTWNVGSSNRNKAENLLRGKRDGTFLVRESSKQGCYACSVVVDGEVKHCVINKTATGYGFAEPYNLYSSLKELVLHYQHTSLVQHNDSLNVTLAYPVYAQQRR
# protocol-summary: PI3 Kinase TR-FRET assay, PI3Kα (wild-type)
assay-metric: IC50

                                   compound  recorded_measurement
0  CN(C)C(=O)c1ccc(NC(=O)Nc2ccc(-c3nc(N4CCOCC4)c4ncc(-c5cccc(S(C)(=O)=O)c5)cc4n3)cc2)cc1 [Example 39]               < 50 nM
1  CN(C)C(=O)c1ccc(NC(=O)Nc2ccc(-c3nc(N4CCOCC4)c4ncc(-c5cnc(N(C)C)nc5)cc4n3)cc2)cc1 [Example 230]               < 50 nM
2  CC(O)c1ccc(-c2ccc3c(N4CCOCC4)nc(-c4ccc(NC(=O)Nc5ccc(C(=O)N(C)C)cc5)cc4F)nc3c2)o1 (centres unmarked) [Example 275]          50 to 200 nM
3  CN(C)C(=O)c1ccc(NC(=O)Nc2ccc(-c3nc(N4CCOCC4)c4ncc(-c5cncnc5)cc4n3)cc2)c(F)c1 [Example 154]               < 50 nM
4  COc1cccc(-c2ccc3c(N4CCOCC4)nc(-c4ccc(NC(=O)Nc5ccc(C(=O)N(C)C)cc5)cc4)nc3c2)c1 [Example 48]          50 to 200 nM
